# Tested on: LXRα and/or LXRβ
# Protocol: Co-transfection assay (LXRE luciferase reporter, CV-1 cells)
# Format: cell-based, human
# Condition notes: tested as described in Example 33; IC50 or EC50 for LXRα and/or LXRβ, isoform not specified; read-out: activity (IC50 or EC50 for LXR)
Readout kind: IC50 or EC50 (potency, activation or inhibition)

CS(=O)(=O)c1cccc(-c2ccc(-n3cc(C(F)(F)F)nc3-c3ccccc3Cl)cc2)c1 [Example 358] : < 1000 nM
CCOC(=O)c1cn(-c2ccc(Br)cc2)c(-c2ccccc2C(F)(F)F)n1 [Example 366] : 1000 to 10000 nM
Cc1cc(-c2ccc(CO)c(S(C)(=O)=O)c2)ccc1-n1cc(C(C)(C)O)nc1-c1c(F)cccc1Cl [Example 172] : < 1000 nM

Reported IC50 or EC50 (potency, activation or inhibition) (LXRα and/or LXRβ) for entry CON(C)C(=O)c1ccc(-c2ccc(-n3cc(C(C)(C)O)nc3-c3c(F)cccc3Cl)c(Cl)c2)cc1S(C)(=O)=O [Example 448] is > 10000 nM

----------
# Tested on: LXRα and/or LXRβ
# Protocol: Co-transfection assay (LXRE luciferase reporter, CV-1 cells)
# Format: cell-based, human
# Condition notes: tested as described in Example 33; IC50 or EC50 for LXRα and/or LXRβ, isoform not specified; read-out: activity (IC50 or EC50 for LXR)
Readout kind: IC50 or EC50 (potency, activation or inhibition)

Please review the following examples before continuing.
CCN(CC)C(=O)c1cn(-c2ccc(-c3cccc(S(C)(=O)=O)c3)cc2C)c(-c2c(Cl)cccc2Cl)n1 : < 1000 nM
CCS(=O)(=O)c1cccc(-c2ccc(-n3cc(C(C)(C)O)nc3Cc3cccc(Cl)c3Cl)c(F)c2)c1 : < 1000 nM
Cc1cc(-c2cccc(S(C)(=O)=O)c2)ccc1-n1cc(C(C)(C)O)nc1-c1c(F)cccc1F : < 1000 nM

Reported IC50 or EC50 (potency, activation or inhibition) (LXRα and/or LXRβ) for entry CC(C)(O)c1cn(-c2ccc(-c3ccc(C(C)(C)O)c(S(C)(=O)=O)c3)cc2Cl)c(-c2c(F)cccc2Cl)n1 is 1000 to 10000 nM

Reported IC50 or EC50 (potency, activation or inhibition) (LXRα and/or LXRβ) for entry Cc1cccc(Cl)c1-c1nc(C(C)(C)O)cn1-c1ccc(-c2cccc(S(C)(=O)=O)c2)cc1F is < 1000 nM

Reported IC50 or EC50 (potency, activation or inhibition) (LXRα and/or LXRβ) for entry CC(C)S(=O)(=O)c1cccc(-c2ccc(-n3cc(C(F)(F)F)nc3-c3ccccc3C(F)(F)F)cc2)c1 is < 1000 nM

Reported IC50 or EC50 (potency, activation or inhibition) (LXRα and/or LXRβ) for entry CCS(=O)(=O)c1cccc(-c2ccc(-n3cc(C(C)(C)O)nc3-c3cccc4cnccc34)c(C)c2)c1 is 1000 to 10000 nM

----------
Collected IC50 or EC50 (potency, activation or inhibition) values appear next to each entry.
# Tested on: LXRα and/or LXRβ
# Protocol: Co-transfection assay (LXRE luciferase reporter, CV-1 cells)
# Type: cell-based, human
# Condition notes: tested as described in Example 33; IC50 or EC50 for LXRα and/or LXRβ, isoform not specified; read-out: activity (IC50 or EC50 for LXR)

CCC(O)(CC)c1cn(-c2ccc(-c3cccc(S(=O)(=O)CC)c3)cc2)c(-c2cccc(Cl)c2Cl)n1 : < 1000 nM
FC(F)(F)c1cn(-c2ccc(Br)cc2)c(-c2ccccc2C(F)(F)F)n1 : 1000 to 10000 nM
CN1CCN(C(=O)c2cn(-c3ccc(-c4cccc(S(C)(=O)=O)c4)cc3)c(-c3c(Cl)cccc3Cl)n2)CC1 : 1000 to 10000 nM

# IC50 or EC50 (potency, activation or inhibition) of CC(C)S(=O)(=O)c1cccc(-c2ccc(-n3cc(C(F)(F)F)nc3-c3ccccc3C(F)(F)F)nc2)c1 = < 1000 nM

# IC50 or EC50 (potency, activation or inhibition) of CC(C)(O)c1cn(-c2ccc(-c3cccc(S(C)(=O)=O)c3)cc2Cl)c(-c2cccc(F)c2Cl)n1 = < 1000 nM

# IC50 or EC50 (potency, activation or inhibition) of Cc1cc(-c2cc(S(C)(=O)=O)ccc2Cl)ccc1-n1cc(C(C)(C)O)nc1Cc1cccc(Cl)c1Cl = < 1000 nM

# IC50 or EC50 (potency, activation or inhibition) of CS(=O)(=O)c1cccc(-c2ccc(-n3cc(C(=O)NCCO)nc3-c3c(Cl)cccc3Cl)c(Cl)c2)c1 = < 1000 nM
